Let's go through some recorded HepSE_jaundice values for Hepatotoxicity together.
// keep it numeric: no unit symbol after the value

Below, each entry is followed by its recorded HepSE_jaundice result.
Request: Quick one: HepSE_jaundice of CN1CCN(C2=Nc3cc(Cl)ccc3Nc3ccccc32)CC1 [CLOZAPINE] ?
Response: 1

Request: Consider next the compound CC(O)(P(=O)(O)O)P(=O)(O)O [ETIDRONIC ACID] in the same way.
Response: 0

Request: For C[N+]1(C)CCCC(OC(=O)C(O)(c2ccccc2)c2ccccc2)C1.[Br-] (centres undefined) [MEPENZOLATE BROMIDE] then?
Response: 0

Request: Another compound to check: CNCCC(Oc1ccc(C(F)(F)F)cc1)c1ccccc1 (centres undefined) [FLUOXETINE]
Response: 1

Request: Same lookup for C[N+](C)(C)CCOC(=O)CCC(=O)OCC[N+](C)(C)C [SUXAMETHONIUM] , please.
Response: 0

Continuing:
Request: Value lookup for HepSE_jaundice; key = CCN(Cc1ccncc1)C(=O)C(CO)c1ccccc1 (centres undefined) [TROPICAMIDE]
Response: 0

Request: // next record CN1CCC(=C2c3ccccc3CCc3sccc32)CC1 [PIZOTYLINE]
Response: 0

Request: Same again, this time with C[C@]12CCC(=O)C=C1CC[C@@H]1[C@@H]2C(=O)C[C@@]2(C)[C@H]1CC[C@]2(O)C(=O)CO [CORTISONE]
Response: 0

====

Parameter HepSE_hepatic failure, tested on Hepatotoxicity, listed per item.
Give the value as a plain number.

Below are worked cases with known answers.
Request: Form entry - test system: Hepatotoxicity; read-out: HepSE_hepatic failure; compound: COc1cc(C(=O)NS(=O)(=O)c2ccccc2C)ccc1Cc1cn(C)c2ccc(NC(=O)OC3CCCC3)cc12 [ZAFIRLUKAST]
Response: 1

Request: Do the same for CN(C)/N=N/c1[nH]cnc1C(N)=O [DACARBAZINE] please
Response: 0

Request: Next entry: CN(C)C(=O)C(CCN1CCC(O)(c2ccc(Cl)cc2)CC1)(c1ccccc1)c1ccccc1 [LOPERAMIDE]
Response: 0

Request: Similarly, CC1=C(C(=O)O)N2C(=O)[C@@H](NC(=O)[C@H](N)c3ccc(O)cc3)[C@H]2SC1 [CEFADROXIL] ?
Response: 1

Request: Another compound: Cc1ccc(S(=O)(=O)NC(=O)NN2CCCCCC2)cc1 [TOLAZAMIDE]
Response: 0

Request: Consider next the compound CCCC(C)(COC(N)=O)COC(=O)NC(C)C (centres undefined) [CARISOPRODOL] in the same way.
Response: 0

More entries:
Request: Item: CSc1ccc2c(c1)N(CCC1CCCCN1C)c1ccccc1S2 (centres undefined) [THIORIDAZINE] Test system: Hepatotoxicity Read-out: HepSE_hepatic failure Value: ?
Response: 0

Request: // same read-out, input: CC(=O)/N=c1/sc(S(N)(=O)=O)nn1C [METHAZOLAMIDE]
Response: 0

Request: Continue with CCN(Cc1ccncc1)C(=O)C(CO)c1ccccc1 (centres undefined) [TROPICAMIDE]
Response: 0

====

compounds and their reported HepSE_liver disease
- Test system: Hepatotoxicity
I'd appreciate a reply containing only the number, no unit.

Request: Using the record for NCCS [CYSTEAMINE] , report its HepSE_liver disease.
Response: 0

Request: Consider next the compound CN1C2CCCC1CC(NC(=O)c1nn(C)c3ccccc13)C2 (stereo not drawn) [GRANISETRON] in the same way.
Response: 0

====

In this section, each of the compounds is paired with its reported HepSE_liver disease.
- System: Hepatotoxicity
When you answer, write just the number.

Completed entries (count: 3):
Request: HepSE_liver disease for CC[C@@]1(O)C(=O)OCc2c1cc1n(c2=O)Cc2cc3c(CN(C)C)c(O)ccc3nc2-1 ?
Response: 0

Request: # repeat for N[C@@H]1[C@H]2CN(c3nc4c(cc3F)c(=O)c(C(=O)O)cn4-c3ccc(F)cc3F)C[C@@H]12
Response: 0

Request: What about this compound? CCS(=O)(=O)CCn1c([N+](=O)[O-])cnc1C
Response: 0

More entries:
Request: Requested field: HepSE_liver disease. Item: CCOC(=O)C1=C[C@@H](OC(CC)CC)[C@H](NC(C)=O)[C@@H](N)C1
Response: 0

Request: Thanks! And CCOC(=O)[C@H](CCc1ccccc1)N[C@H]1CCc2ccccc2N(CC(=O)O)C1=O ?
Response: 0

Request: Another compound: N[C@@H](Cc1cc(I)c(Oc2cc(I)c(O)c(I)c2)c(I)c1)C(=O)O
Response: 0

Request: For COC(=O)C(c1ccccc1)C1CCCCN1 (configuration not stated) [METHYLPHENIDATE] then?
Response: 0

Request: # iterate: N[C@@H](C(=O)N[C@@H]1C(=O)N2C(C(=O)O)=C(Cl)CC[C@H]12)c1ccccc1 [LORACARBEF ANHYDROUS]
Response: 0

Request: Next entry: C#C[C@]1(O)CC[C@H]2[C@@H]3CCC4=Cc5oncc5C[C@]4(C)[C@H]3CC[C@@]21C
Response: 0

Request: Check CCCN1C[C@H](CSC)C[C@@H]2c3cccc4[nH]cc(c34)C[C@H]21 [PERGOLIDE] too.
Response: 0

Request: Here is the next compound: CCOC(=O)c1cncn1[C@H](C)c1ccccc1 [ETOMIDATE]
Response: 0

Request: Can you check CCOC(=O)[C@H](CCc1ccccc1)N[C@@H](C)C(=O)N1[C@H](C(=O)O)C[C@@H]2CCC[C@@H]21 next?
Response: 0

Request: # repeat for CN1CCc2cccc3c2[C@H]1Cc1ccc(O)c(O)c1-3
Response: 0

Request: What do you have for CC(C)(Oc1ccc(CCNC(=O)c2ccc(Cl)cc2)cc1)C(=O)O [BEZAFIBRATE] ?
Response: 0

Request: What would you report for O=C1OC2(c3ccc(O)cc3Oc3cc(O)ccc32)c2ccccc21 ?
Response: 0

Request: Now the compound CC(C)(C)NCC(O)c1ccc(O)c(CO)n1 (configuration not stated)
Response: 0

Request: Cool, now CC(=O)N(CC(O)CN(C(C)=O)c1c(I)c(C(=O)NCC(O)CO)c(I)c(C(=O)NCC(O)CO)c1I)c1c(I)c(C(=O)NCC(O)CO)c(I)c(C(=O)NCC(O)CO)c1I (configuration not stated)
Response: 0

====

- System: Hepatotoxicity
The molecules listed here are annotated with their HepSE_elevated liver function tests.
Output spec: single numeric token, no unit.

Request: Which HepSE_elevated liver function tests reading was recorded for the molecule N=C(N)NCCC[C@H](N)C(=O)O [ARGININE] ?
Response: 0

Request: How about this molecule: CCCCC[C@](C)(O)/C=C/[C@@H]1[C@@H](C/C=C/CCCC(=O)O)[C@@H](O)C[C@H]1O
Response: 0

Next:
Request: What does the data say about its HepSE_elevated liver function tests? Entry: C[C@]12CC[C@@H]3c4ccc(O)cc4CC[C@H]3[C@@H]1CC[C@@H]2O [ESTRADIOL]
Response: 1

Request: Consider next the molecule CC[N+](C)(C)Cc1ccccc1Br [BRETYLIUM] in the same way.
Response: 0

Request: What do you get for CO/N=C(\C(=O)N[C@@H]1C(=O)N2C(C(=O)O)=C(COC(C)=O)CS[C@H]12)c1csc(N)n1 [CEFOTAXIME] ?
Response: 0

====

Record: HepSE_liver function tests abnormal reported on Hepatotoxicity.
# answer = number (no unit)

Request: // returns reported HepSE_liver function tests abnormal for input CC1(C)S[C@@H]2[C@H](NC(=O)[C@H](N)c3ccccc3)C(=O)N2[C@H]1C(=O)O
Response: 0

Request: What would you report for Cn1nnc2c(C(N)=O)ncn2c1=O [TEMOZOLOMIDE] ?
Response: 0

Request: Please do the same for O=C[C@H](O)[C@@H](O)[C@@H](O)[C@H](O)CO as well.
Response: 0

Continuing:
Request: Using the record for CNNCc1ccc(C(=O)NC(C)C)cc1 , report its HepSE_liver function tests abnormal.
Response: 0

Request: Also CN[C@@H](C)Cc1ccccc1 , if possible.
Response: 0

====

- Tested on: Hepatotoxicity
Quick reference for HepSE_cirrhosis among some compounds
Give a plain numeric answer without units written out.

Request: Consider the compound CC(C)OC(=O)C(C)(C)Oc1ccc(C(=O)c2ccc(Cl)cc2)cc1 [FENOFIBRATE] and give its measured HepSE_cirrhosis.
Response: 1

Continuing:
Request: May I ask what HepSE_cirrhosis has been recorded for CCCSc1ccc2nc(NC(=O)OC)[nH]c2c1 ?
Response: 0

Request: Now this one: OC[C@H]1O[C@@H](O)[C@@H](F)[C@@H](O)[C@@H]1O
Response: 0

Request: Also, CC1=NS(=O)(=O)c2cc(Cl)ccc2N1 [DIAZOXIDE] please.
Response: 0

Request: Queued: C[C@H]1O[C@@H](O[C@H]2[C@@H](O)C[C@H](O[C@H]3[C@@H](O)C[C@H](O[C@H]4CC[C@@]5(C)[C@H](CC[C@@H]6[C@@H]5C[C@@H](O)[C@]5(C)[C@@H](C7=CC(=O)OC7)CC[C@]65O)C4)O[C@@H]3C)O[C@@H]2C)C[C@H](O)[C@@H]1O
Response: 0

Request: What about O=c1[nH]c(=O)n([C@H]2C[C@H](O)[C@@H](CO)O2)cc1C(F)(F)F ?
Response: 0
